Molecular target: Mmp7 (rat); also: test concentration or dose not given here
Assay: reporter assay of Huesken 2005
Conditions: siRNA
Oligonucleotides are given in HELM: sugar(base)linkage, 5' to 3'; d 2'-deoxyribose, r ribose, m 2'-O-methylribose, p phosphate. ss, as = sense and antisense strand
List of normalised inhibition (eCFP-eYFP dual reporter) values.
# unit: % | format: bare number

Observe how each entry below is paired with its result.
RNA1{r(U)p.r(G)p.r(G)p.r(G)p.r(A)p.r(A)p.r(C)p.r(A)p.r(G)p.r(G)p.r(C)p.r(G)p.r(C)p.r(A)p.r(G)p.r(A)p.r(A)p.r(U)p.r(U)p.d(T)p.d(T)}|RNA2{r(A)p.r(A)p.r(U)p.r(U)p.r(C)p.r(U)p.r(G)p.r(C)p.r(G)p.r(C)p.r(C)p.r(U)p.r(G)p.r(U)p.r(U)p.r(C)p.r(C)p.r(C)p.r(A)p.d(C)p.d(T)}$$$RNA1{StrandType:ss}|RNA2{StrandType:as}$ | 46.8
RNA1{r(U)p.r(G)p.r(G)p.r(C)p.r(C)p.r(C)p.r(U)p.r(G)p.r(C)p.r(C)p.r(A)p.r(C)p.r(U)p.r(G)p.r(U)p.r(C)p.r(C)p.r(C)p.r(A)p.d(T)p.d(T)}|RNA2{r(U)p.r(G)p.r(G)p.r(G)p.r(A)p.r(C)p.r(A)p.r(G)p.r(U)p.r(G)p.r(G)p.r(C)p.r(A)p.r(G)p.r(G)p.r(G)p.r(C)p.r(C)p.r(A)p.d(G)p.d(G)}$$$RNA1{StrandType:ss}|RNA2{StrandType:as}$ | 93.6
RNA1{r(A)p.r(G)p.r(G)p.r(C)p.r(C)p.r(U)p.r(C)p.r(G)p.r(G)p.r(C)p.r(G)p.r(G)p.r(A)p.r(G)p.r(A)p.r(U)p.r(G)p.r(C)p.r(U)p.d(T)p.d(T)}|RNA2{r(A)p.r(G)p.r(C)p.r(A)p.r(U)p.r(C)p.r(U)p.r(C)p.r(C)p.r(G)p.r(C)p.r(C)p.r(G)p.r(A)p.r(G)p.r(G)p.r(C)p.r(C)p.r(U)p.d(G)p.d(G)}$$$RNA1{StrandType:ss}|RNA2{StrandType:as}$ | 68.5

Qu. Give recorded normalised inhibition (eCFP-eYFP dual reporter) with Mmp7 (rat) for the following substance: RNA1{r(C)p.r(A)p.r(A)p.r(A)p.r(G)p.r(A)p.r(A)p.r(G)p.r(G)p.r(C)p.r(C)p.r(A)p.r(C)p.r(C)p.r(A)p.r(G)p.r(U)p.r(G)p.r(C)p.d(T)p.d(T)}|RNA2{r(G)p.r(C)p.r(A)p.r(C)p.r(U)p.r(G)p.r(G)p.r(U)p.r(G)p.r(G)p.r(C)p.r(C)p.r(U)p.r(U)p.r(C)p.r(U)p.r(U)p.r(U)p.r(G)p.d(T)p.d(T)}$$$RNA1{StrandType:ss}|RNA2{StrandType:as}$
Ans. 38.2

Qu. Give recorded normalised inhibition (eCFP-eYFP dual reporter) with Mmp7 (rat) for the following substance: RNA1{r(C)p.r(A)p.r(G)p.r(A)p.r(C)p.r(A)p.r(U)p.r(C)p.r(A)p.r(U)p.r(A)p.r(A)p.r(U)p.r(U)p.r(G)p.r(G)p.r(C)p.r(U)p.r(U)p.d(T)p.d(T)}|RNA2{r(A)p.r(A)p.r(G)p.r(C)p.r(C)p.r(A)p.r(A)p.r(U)p.r(U)p.r(A)p.r(U)p.r(G)p.r(A)p.r(U)p.r(G)p.r(U)p.r(C)p.r(U)p.r(G)p.d(C)p.d(A)}$$$RNA1{StrandType:ss}|RNA2{StrandType:as}$
Ans. 103

Qu. Give recorded normalised inhibition (eCFP-eYFP dual reporter) with Mmp7 (rat) for the following substance: RNA1{r(A)p.r(A)p.r(A)p.r(A)p.r(C)p.r(A)p.r(A)p.r(A)p.r(G)p.r(A)p.r(A)p.r(G)p.r(G)p.r(C)p.r(C)p.r(A)p.r(C)p.r(C)p.r(A)p.d(T)p.d(T)}|RNA2{r(U)p.r(G)p.r(G)p.r(U)p.r(G)p.r(G)p.r(C)p.r(C)p.r(U)p.r(U)p.r(C)p.r(U)p.r(U)p.r(U)p.r(G)p.r(U)p.r(U)p.r(U)p.r(U)p.d(A)p.d(G)}$$$RNA1{StrandType:ss}|RNA2{StrandType:as}$
Ans. 45.7

Qu. Give recorded normalised inhibition (eCFP-eYFP dual reporter) with Mmp7 (rat) for the following substance: RNA1{r(G)p.r(C)p.r(C)p.r(A)p.r(G)p.r(A)p.r(U)p.r(G)p.r(U)p.r(U)p.r(G)p.r(C)p.r(A)p.r(G)p.r(A)p.r(A)p.r(U)p.r(U)p.r(C)p.d(T)p.d(T)}|RNA2{r(G)p.r(A)p.r(A)p.r(U)p.r(U)p.r(C)p.r(U)p.r(G)p.r(C)p.r(A)p.r(A)p.r(C)p.r(A)p.r(U)p.r(C)p.r(U)p.r(G)p.r(G)p.r(C)p.d(A)p.d(C)}$$$RNA1{StrandType:ss}|RNA2{StrandType:as}$
Ans. 100

Qu. Give recorded normalised inhibition (eCFP-eYFP dual reporter) with Mmp7 (rat) for the following substance: RNA1{r(A)p.r(G)p.r(A)p.r(A)p.r(U)p.r(U)p.r(C)p.r(U)p.r(C)p.r(A)p.r(C)p.r(U)p.r(A)p.r(A)p.r(U)p.r(G)p.r(C)p.r(C)p.r(A)p.d(T)p.d(T)}|RNA2{r(U)p.r(G)p.r(G)p.r(C)p.r(A)p.r(U)p.r(U)p.r(A)p.r(G)p.r(U)p.r(G)p.r(A)p.r(G)p.r(A)p.r(A)p.r(U)p.r(U)p.r(C)p.r(U)p.d(G)p.d(C)}$$$RNA1{StrandType:ss}|RNA2{StrandType:as}$
Ans. 107

Qu. Give recorded normalised inhibition (eCFP-eYFP dual reporter) with Mmp7 (rat) for the following substance: RNA1{r(G)p.r(C)p.r(A)p.r(G)p.r(A)p.r(C)p.r(A)p.r(U)p.r(C)p.r(A)p.r(U)p.r(A)p.r(A)p.r(U)p.r(U)p.r(G)p.r(G)p.r(C)p.r(U)p.d(T)p.d(T)}|RNA2{r(A)p.r(G)p.r(C)p.r(C)p.r(A)p.r(A)p.r(U)p.r(U)p.r(A)p.r(U)p.r(G)p.r(A)p.r(U)p.r(G)p.r(U)p.r(C)p.r(U)p.r(G)p.r(C)p.d(A)p.d(G)}$$$RNA1{StrandType:ss}|RNA2{StrandType:as}$
Ans. 95.9

Qu. Give recorded normalised inhibition (eCFP-eYFP dual reporter) with Mmp7 (rat) for the following substance: RNA1{r(A)p.r(C)p.r(A)p.r(G)p.r(U)p.r(C)p.r(C)p.r(U)p.r(A)p.r(A)p.r(G)p.r(U)p.r(G)p.r(G)p.r(C)p.r(A)p.r(U)p.r(U)p.r(C)p.d(T)p.d(T)}|RNA2{r(G)p.r(A)p.r(A)p.r(U)p.r(G)p.r(C)p.r(C)p.r(A)p.r(C)p.r(U)p.r(U)p.r(A)p.r(G)p.r(G)p.r(A)p.r(C)p.r(U)p.r(G)p.r(U)p.d(T)p.d(T)}$$$RNA1{StrandType:ss}|RNA2{StrandType:as}$
Ans. 65.7
